System: 253994-281-T-J1-PDC KRAS-mutant spheroids with HUVEC/MSC, viability
Test: Anticancer human tumor 253994-281-T-J1-PDC patient-derived colorectal carcinoma cell line growth inhibition [KRAS2]
Conditions: second compound 0.316 µM; first compound 1 µM; stronger effect = lower value
Assay endpoint: viability, T/C (%)
Please reply with the bare figure in % and do not write the unit itself.

Examples from the recorded data:
CC1OCC2(CCN(c3cnc(Sc4ccnc(N)c4Cl)c(N)n3)CC2)C1N (stereo not given) + COc1cc2nc(C)nc(NC(C)c3cc(N)cc(C(F)(F)F)c3)c2cc1OC1CCOC1; 68
CC1(C)CCC(CN2CCN(c3ccc(C(=O)NS(=O)(=O)c4ccc(NCC5CCOCC5)c([N+](=O)[O-])c4)c(Oc4cnc5[nH]ccc5c4)c3)CC2)=C(c2ccc(Cl)cc2)C1 + CC1OCC2(CCN(c3cnc(Sc4ccnc(N)c4Cl)c(N)n3)CC2)C1N; 80.4
COc1cc2nccc(Oc3ccc(NC(=O)C4(C(=O)Nc5ccc(F)cc5)CC4)cc3)c2cc1OC + C=CC(=O)N1CCN(c2nc(OCC3CCCN3C)nc3c2CCN(c2cccc4cccc(C)c24)C3)CC1CC#N; 97.6
COc1cc2nccc(Oc3ccc(NC(=O)C4(C(=O)Nc5ccc(F)cc5)CC4)cc3)c2cc1OC + CNCc1ccccc1-c1csc(C(C)Nc2nc(C)nc3cc(OC)c(OC)cc23)c1; 96.6
CCN1CCN(Cc2ccc(Nc3ncc(F)c(-c4cc(F)c5nc(C)n(C(C)C)c5c4)n3)nc2)CC1 + C=CC(=O)N1CCN(c2nc(OCC3CCCN3C)nc3c2CCN(c2cccc4cccc(C)c24)C3)CC1CC#N; 52.5
CC1COCCN1c1cc(-c2ccnn2C)c2ccnc(-c3ccn[nH]3)c2n1 (stereo not given) + COc1cc2nc(C)nc(NC(C)c3cc(N)cc(C(F)(F)F)c3)c2cc1OC1CCOC1; 37.6
COc1cc(Nc2ncc3c(n2)-c2ccc(Cl)cc2C(c2c(F)cccc2OC)=NC3)ccc1C(=O)O + CC1OCC2(CCN(c3cnc(Sc4ccnc(N)c4Cl)c(N)n3)CC2)C1N; 26
COc1cc(Nc2ncc3c(n2)-c2ccc(Cl)cc2C(c2c(F)cccc2OC)=NC3)ccc1C(=O)O + CNCc1ccccc1-c1csc(C(C)Nc2nc(C)nc3cc(OC)c(OC)cc23)c1; 30.3
COC(=O)c1ccc2c(C(=Nc3ccc(N(C)C(=O)CN4CCN(C)CC4)cc3)c3ccccc3)c(O)[nH]c2c1 + C=CC(=O)N1CCN(c2nc(=O)n(-c3c(C)ccnc3C(C)C)c3nc(-c4c(O)cccc4F)c(F)cc23)C(C)C1; 92.7

query: I would be grateful if you could share the reported viability, T/C for COC(=O)c1ccc2c(C(=Nc3ccc(N(C)C(=O)CN4CCN(C)CC4)cc3)c3ccccc3)c(O)[nH]c2c1 + CC1OCC2(CCN(c3cnc(Sc4ccnc(N)c4Cl)c(N)n3)CC2)C1N .
result: 85.2

* * *

Tested on: 253994-281-T-J1-PDC KRAS-mutant spheroids with HUVEC/MSC, viability
Test: Anticancer human tumor 253994-281-T-J1-PDC cell line growth inhibition [KRAS2];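 note: spheroids exposed to agents for seven days before readout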
Conditions: curve of first compound; second compound 0.316 µM
pIC50: −log10 of the molar value.
In this section we review reported pIC50 values for a set of compounds.

Cn1ncnc1[C@H]1c2n[nH]c(=O)c3cc(F)cc(c23)N[C@@H]1c1ccc(F)cc1 + CNCc1ccccc1-c1csc(C(C)Nc2nc(C)nc3cc(OC)c(OC)cc23)c1; < 7.00
COc1cc2nccc(Oc3ccc(NC(=O)C4(C(=O)Nc5ccc(F)cc5)CC4)cc3)c2cc1OC + C=CC(=O)N1CCN(c2nc(OCC3CCCN3C)nc3c2CCN(c2cccc4cccc(C)c24)C3)CC1CC#N; < 5.00
CC(=O)OC12COC1CC(O)C1(C)C(=O)C(O)C3=C(C)C(OC(=O)C(O)C(NC(=O)OC(C)(C)C)c4ccccc4)CC(O)(C(OC(=O)c4ccccc4)C21)C3(C)C (configuration not stated) + CC1OCC2(CCN(c3cnc(Sc4ccnc(N)c4Cl)c(N)n3)CC2)C1N; > 8.00

query: I would be grateful if you could share the reported pIC50 for Cn1ncnc1[C@H]1c2n[nH]c(=O)c3cc(F)cc(c23)N[C@@H]1c1ccc(F)cc1 + C=CC(=O)N1CCN(c2nc(=O)n(-c3c(C)ccnc3C(C)C)c3nc(-c4c(O)cccc4F)c(F)cc23)C(C)C1 .
result: < 7.00

query: I would be grateful if you could share the reported pIC50 for CC1COCCN1c1cc(-c2ccnn2C)c2ccnc(-c3ccn[nH]3)c2n1 (configuration not stated) + C=CC(=O)N1CCN(c2nc(OCC3CCCN3C)nc3c2CCN(c2cccc4cccc(C)c24)C3)CC1CC#N .
result: < 5.50
